Experimental System: human recombinant serotonin (5-Hydroxytryptamine) 5-HT7 receptor (Homo sapiens, UniProt P34969)
Construct: expressed in transfected cells; host or cells: CHO cells
Sequence (P34969 whole entry): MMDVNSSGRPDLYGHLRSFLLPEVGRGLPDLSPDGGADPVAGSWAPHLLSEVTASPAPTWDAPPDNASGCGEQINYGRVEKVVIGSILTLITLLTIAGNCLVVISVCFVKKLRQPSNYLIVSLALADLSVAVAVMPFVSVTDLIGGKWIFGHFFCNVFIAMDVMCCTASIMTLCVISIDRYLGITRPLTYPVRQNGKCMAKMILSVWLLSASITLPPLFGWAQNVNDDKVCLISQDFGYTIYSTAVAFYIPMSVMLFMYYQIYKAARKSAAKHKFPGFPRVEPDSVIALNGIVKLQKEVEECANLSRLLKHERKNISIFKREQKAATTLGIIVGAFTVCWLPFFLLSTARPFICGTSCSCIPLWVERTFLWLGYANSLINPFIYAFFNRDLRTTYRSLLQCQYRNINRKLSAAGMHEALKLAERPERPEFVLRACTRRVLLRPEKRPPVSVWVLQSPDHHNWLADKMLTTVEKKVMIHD
Test Summary: Serotonin 5-HT7 radioligand binding ([3H]LSD)
Condition Set: 2 h; read-out: Percent Inhibition of ligand binding Serotonin (1 μM ligand concentration) 5-HT7
Property: inhibition at 1 µM (%)
Number in %, nothing else.

QUERY: Requested read-out: inhibition at 1 µM. Entry: CC1c2c(c3cc(Cl)ccc3n2C#Cc2ccc(F)cc2)CCN1C (stereo not drawn) [Compound 128]
RESULT: 24

QUERY: Item under review: Cc1ccc2c(c1)c1c(n2C(=O)Cc2ccc(Cl)cc2)C(c2ccccc2)N(C)CC1 (stereo not drawn) [Compound 163] . Reported inhibition at 1 µM?
RESULT: 29

QUERY: Form field: reported inhibition at 1 µM of CCC1c2c(c3cc(Cl)ccc3n2/C=C(\C)c2cccnc2)CCN1C (stereo not drawn) [Compound 108]
RESULT: 62

====

Experimental System: human recombinant dopamine D2L receptor (Homo sapiens)
Construct: expressed in transfected cells; host or cells: CHO cells
Test Summary: Dopamine D2L radioligand binding ([3H]Spiperone)
Condition Set: 2 h, 1 μM ligand conc.; read-out: Percent Inhibition of ligand binding Dopamine (1 μM ligand conc.) D2L
Experimental: To evaluate in radioligand binding assays the activity of compounds of the invention, human recombinant dopamine D2L receptor expressed in Chinese hamster ovary (CHO) cells (Grandy, D. K. et al. Proc. Natl. Acad. Sci. USA. 86:9762, 1989; Hayes, G. et al., Mol. Endocrinol. 6:920, 1992) in a modified Tris-HCl buffer (50 mM Tris-HCl, pH 7.4, 1.4 mM Ascorbic Acid, 0.001% BSA, 150 mM NaCl) was used. Compounds of the invention were incubated with 0.16 nM [^3H]Spiperone for 120 minutes at 25° C. […]
Values of inhibition at 1 µM greater than or equal to 20% map to yes; values below map to no.

Worked examples, 5 molecules total:
Cc1ccc2c(c1)c1c(n2/C=C/c2ccccc2)CN(C)CC1    yes
C/C(=C\n1c2c(c3cc(Cl)ccc31)CCN(C)C2)c1ccc(Cl)cc1    yes
CC1c2c(c3cc(Cl)ccc3n2C#Cc2ccc(Cl)cc2)CCN1C (centres unmarked)    no
C/C(=C\n1c2c(c3cc(Cl)ccc31)CCN(C)C2)c1ccc(F)c(F)c1    no
C/C(=C\n1c2c(c3cc(C)ccc31)CCN(C)C2c1ccccc1)c1ccc(Cl)cc1 (centres unmarked)    no

QUERY: Please tell me: is the molecule CN1CCc2c(n(CCN3CCCCC3)c3ccc(Cl)cc23)C1 at or over 20% in terms of inhibition at 1 µM?
RESULT: no

QUERY: # bool: inhibition at 1 µM of CN1CCc2c(n(CC(C)(O)c3ccc(F)cc3)c3ccc(Cl)cc23)C1 (centres unmarked) >= 20%
RESULT: yes

====

# inhibition at 0.1 µM listing for each entry below
Experimental System: human recombinant serotonin (5-Hydroxytryptamine) 5-HT6 receptor (Homo sapiens, UniProt P50406)
Construct: expressed in transfected cells; host or cells: human HeLa cells
Sequence (P50406 whole entry): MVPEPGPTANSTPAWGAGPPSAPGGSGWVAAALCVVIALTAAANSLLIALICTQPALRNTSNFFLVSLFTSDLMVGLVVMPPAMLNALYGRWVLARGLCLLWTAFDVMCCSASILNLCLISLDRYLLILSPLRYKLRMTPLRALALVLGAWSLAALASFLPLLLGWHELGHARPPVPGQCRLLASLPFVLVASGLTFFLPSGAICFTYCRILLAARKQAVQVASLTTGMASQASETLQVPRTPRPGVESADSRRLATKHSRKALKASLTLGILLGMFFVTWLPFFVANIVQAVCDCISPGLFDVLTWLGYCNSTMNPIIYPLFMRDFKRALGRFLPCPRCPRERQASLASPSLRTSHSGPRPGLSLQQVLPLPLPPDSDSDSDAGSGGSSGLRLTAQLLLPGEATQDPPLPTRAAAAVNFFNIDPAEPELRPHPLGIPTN
Test Summary: Serotonin 5-HT6 radioligand binding ([3H]LSD)
Condition Set: compound concentration 0.1 μM; read-out: Percentage inhibition of ligand binding to 5-HT6 receptor
Write the value in % as a bare number.

Cc1ccc2c(c1)c1c(n2/C=C/c2ccccc2)CN(C)CC1    60
C/C(=C\n1c2c(c3cc(Cl)ccc31)CCN(C)C2)c1ccc(F)cc1    81
C/C(=C\n1c2c(c3cc(C)ccc31)CCN(C)C2C)c1ccccc1F (stereo not shown)    38

--- query ---
QUERY: inhibition at 0.1 µM lookup needed for C/C(=C\n1c2c(c3cc(C)ccc31)CCN(C)C2)c1ccc(F)cc1 , thanks.
RESULT: 84

====

Tested on: rat central imidazoline I2 receptor
Test Summary: Central imidazoline I2 radioligand binding ([3H]Idazoxan)
Condition Set: inhibition of specific [3H]Idazoxan binding
Property: Binding data (Percentage Inhibition) Imidazoline I2 Central (1 μM) (%)
Answer format: numeric, % implied, no suffix.

Example compounds with recorded Binding data (Percentage Inhibition) Imidazoline I2 Central (1 μM):
Cc1ccc2c(c1)c1c(n2CCc2ccc(C)nc2)CN(C)CC1    40
Cc1ccc2c(c1)c1c(n2CCC2CCCCC2)CN(C)CC1    18
CN1CCc2c(n(CCc3ccc(F)cc3)c3ccc(Cl)cc23)C1    20
C#CCn1c2c(c3cc(Cl)ccc31)CCN(C)C2    60

Now, please, on to the next compound.
QUERY: Dear colleague, I am looking for the recorded Binding data (Percentage Inhibition) Imidazoline I2 Central (1 μM) of the following compound: CC1CCN(C(=O)Cn2c3c(c4cc(Cl)ccc42)CCN(C)C3)CC1
RESULT: 33

====

Experimental System: human recombinant serotonin (5-Hydroxytryptamine) 5-HT6 receptor (Homo sapiens)
Construct: expressed in transfected cells; host or cells: human HeLa cells
Test Summary: Serotonin 5-HT6 radioligand binding ([3H]LSD)
Condition Set: 2 h; read-out: Percent Inhibition of ligand binding Serotonin (1 μM ligand concentration) 5-HT6
Outcome label depends on inhibition at 1 µM relative to 80%: at/above gives y, below gives n.

Observe how each entry below is paired with its result.
C/C(=C/n1c2c(c3cc(C)ccc31)CCN(C)C2C)c1ccc(Cl)cc1Cl (stereo not drawn)    n
CN1CCc2c(n(CC(=O)NC3CCCCC3)c3ccc(Cl)cc23)C1    n
C/C(=C\n1c2c(c3cc(Cl)ccc31)CCN(C)C2C)c1ccc(F)c(F)c1 (stereo not drawn)    y

QUERY: For this molecule, is measured inhibition at 1 µM 80% or higher? Cc1ccc(CCn2c3c(c4cc(Cl)ccc42)CCN(C)C3C)cn1 (stereo not drawn)
RESULT: n

QUERY: Could you please find out whether Cc1ccc2c(c1)c1c(n2/C=C/c2ccccc2)CN(C)CC1 has inhibition at 1 µM that meets 80% or exceeds it?
RESULT: y

QUERY: Evaluate C/C(=C\n1c2c(c3cc(C)ccc31)CCN(C)C2)c1ccc(Cl)cc1 : inhibition at 1 µM at minimum 80%?
RESULT: n

QUERY: Reported inhibition at 1 µM reaches at least 80% for COc1ccc(/C(C)=C/n2c3c(c4cc(Cl)ccc42)CCN(C)C3)cc1F ?
RESULT: n

QUERY: Has CN1CCc2c(n(CC(=O)Nc3ccc(F)cc3)c3ccc(Cl)cc23)C1 a recorded inhibition at 1 µM greater than or equal to 80%?
RESULT: n

====

Experimental System: human recombinant dopamine D2L receptor (Homo sapiens, UniProt P14416)
Construct: expressed in transfected cells; host or cells: CHO cells
Sequence (P14416 whole entry): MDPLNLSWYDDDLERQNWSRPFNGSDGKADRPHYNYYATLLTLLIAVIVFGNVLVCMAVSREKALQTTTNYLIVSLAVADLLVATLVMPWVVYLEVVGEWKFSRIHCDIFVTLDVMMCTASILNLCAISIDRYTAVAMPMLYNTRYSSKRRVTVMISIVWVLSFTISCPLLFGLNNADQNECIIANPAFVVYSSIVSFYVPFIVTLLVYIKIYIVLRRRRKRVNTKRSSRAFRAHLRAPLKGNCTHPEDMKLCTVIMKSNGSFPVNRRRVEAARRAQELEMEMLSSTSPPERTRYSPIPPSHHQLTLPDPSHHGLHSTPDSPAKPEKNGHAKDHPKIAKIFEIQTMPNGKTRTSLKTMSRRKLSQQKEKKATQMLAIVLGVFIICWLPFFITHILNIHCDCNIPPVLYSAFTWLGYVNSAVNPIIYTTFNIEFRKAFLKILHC
Test Summary: Dopamine D2L radioligand binding ([3H]Spiperone)
Condition Set: 2 h, 1 μM ligand conc.; read-out: Percent Inhibition of ligand binding Dopamine (1 μM ligand conc.) D2L
# key: entry, value: inhibition at 1 µM
Response body: numeric value in %, unit text excluded.

In the examples that follow, each entry is paired with its recorded inhibition at 1 µM.
COC(=O)Cn1c2c(c3cc(Cl)ccc31)CCN(C)C2    -16
CN1CCc2c(n(CC(=O)N3CCNCC3)c3ccc(Cl)cc23)C1    -6
Cc1ccc2c(c1)c1c(n2C(=O)Cc2ccc(Cl)cc2)CN(C)CC1    22
CN1CCc2c(n(CCCc3ccccc3)c3ccc(Cl)cc23)C1    24

QUERY: Which inhibition at 1 µM is reported with human recombinant dopamine D2L receptor (Homo sapiens, UniProt P14416) for this entry: COc1ccc(/C(C)=C/n2c3c(c4cc(Cl)ccc42)CCN(C)C3)cc1F ?
RESULT: 21

====

# inhibition at 1 µM per entry
Experimental System: human recombinant serotonin (5-Hydroxytryptamine) 5-HT2C receptor (Homo sapiens)
Construct: expressed in transfected cells; host or cells: CHO-K1 cells
Sequence (P28335 33-458): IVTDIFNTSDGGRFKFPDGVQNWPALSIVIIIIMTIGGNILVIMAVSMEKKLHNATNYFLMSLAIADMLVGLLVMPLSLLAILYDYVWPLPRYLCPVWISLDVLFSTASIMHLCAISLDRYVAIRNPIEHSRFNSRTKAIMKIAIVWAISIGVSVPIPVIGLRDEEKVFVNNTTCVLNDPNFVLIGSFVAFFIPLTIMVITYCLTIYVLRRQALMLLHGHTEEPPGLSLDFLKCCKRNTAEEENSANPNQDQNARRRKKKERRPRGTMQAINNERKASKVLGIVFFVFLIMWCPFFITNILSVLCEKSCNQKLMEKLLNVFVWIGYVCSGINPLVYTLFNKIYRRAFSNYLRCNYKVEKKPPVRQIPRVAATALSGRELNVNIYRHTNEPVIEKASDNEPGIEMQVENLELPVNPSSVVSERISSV
Test Summary: Serotonin 5-HT2C radioligand binding ([3H]Mesulergine)
Condition Set: 1 h; read-out: Percent Inhibition of ligand binding Serotonin (1 μM ligand concentration) 5-HT2C
Answer format: numeric, % implied, no suffix.

QUERY: GET /values?readout=inhibition at 1 µM&system=human recombinant serotonin (5-Hydroxytryptamine) 5-HT2C receptor (Homo sapiens)&item= Cc1ccc2c(c1)c1c(n2CCC2CCCCC2)CN(C)CC1
RESULT: 84

QUERY: Field: inhibition at 1 µM (human recombinant serotonin (5-Hydroxytryptamine) 5-HT2C receptor (Homo sapiens)). Entry: CN1CCc2c(n(CC(=O)NC3CCCCC3)c3ccc(Cl)cc23)C1
RESULT: 3

QUERY: Short answer please: inhibition at 1 µM, human recombinant serotonin (5-Hydroxytryptamine) 5-HT2C receptor (Homo sapiens), entry CN1CCc2c(n(CC(=O)N(C)C3CCCCC3)c3ccc(Cl)cc23)C1
RESULT: 3

QUERY: Quick check: inhibition at 1 µM on human recombinant serotonin (5-Hydroxytryptamine) 5-HT2C receptor (Homo sapiens), item CC1CCN(C(=O)Cn2c3c(c4cc(Cl)ccc42)CCN(C)C3)CC1 ?
RESULT: 14

QUERY: GET /values?readout=inhibition at 1 µM&system=human recombinant serotonin (5-Hydroxytryptamine) 5-HT2C receptor (Homo sapiens)&item= Cc1ccc2c(c1)c1c(n2C#Cc2ccc(Cl)cc2)C(C)N(C)CC1 (stereo not drawn)
RESULT: 100

QUERY: Param readout = inhibition at 1 µM; param system = human recombinant serotonin (5-Hydroxytryptamine) 5-HT2C receptor (Homo sapiens); param query = C/C(=C\n1c2c(c3cc(C)ccc31)CCN(C)C2)c1ccc(F)c(F)c1 ; response: value
RESULT: 97

QUERY: Notebook entry, human recombinant serotonin (5-Hydroxytryptamine) 5-HT2C receptor (Homo sapiens) assay: inhibition at 1 µM of C/C(=C/n1c2c(c3cc(C)ccc31)CCN(C)C2C)c1ccccc1F (stereo not drawn) = ?
RESULT: 93

QUERY: // fetch human recombinant serotonin (5-Hydroxytryptamine) 5-HT2C receptor (Homo sapiens) inhibition at 1 µM for C/C(=C\n1c2c(c3cc(C)ccc31)CCN(C)C2C)c1ccc(Cl)cc1Cl (stereo not drawn)
RESULT: 101

QUERY: Recorded inhibition at 1 µM for CN1CCc2c(n(CC(=O)N(C)C)c3ccc(Cl)cc23)C1 with human recombinant serotonin (5-Hydroxytryptamine) 5-HT2C receptor (Homo sapiens), please?
RESULT: -18

FYI, the data here is from patent US9260429B2.
